Recorded Ki by entry
molecular target: Cannabinoid receptor 2 (Homo sapiens, UniProt P34972); assay: Displacement of [3H]-CP55940 from human CB2 receptor transfected in HEK-293EBNA cells after 90 mins by luminescence counting analysis
Sequence (P34972 whole entry): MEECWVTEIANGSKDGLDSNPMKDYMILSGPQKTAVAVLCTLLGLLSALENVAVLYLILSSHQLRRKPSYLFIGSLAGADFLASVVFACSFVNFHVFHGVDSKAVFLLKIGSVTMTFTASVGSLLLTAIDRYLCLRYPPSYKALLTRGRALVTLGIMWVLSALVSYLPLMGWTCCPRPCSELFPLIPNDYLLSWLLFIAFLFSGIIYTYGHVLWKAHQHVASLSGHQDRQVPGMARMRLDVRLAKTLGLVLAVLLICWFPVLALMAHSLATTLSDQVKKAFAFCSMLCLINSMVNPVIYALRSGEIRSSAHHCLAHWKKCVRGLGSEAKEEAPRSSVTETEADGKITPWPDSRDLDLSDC

{"ENTRY SMILES": "c1ccc2c(COc3nn(CCN4CCCC4)c4ccccc34)cccc2c1", "UNIT SYMBOL": "nM", "COMPARISON SIGN": "=", "Ki": 400}
{"ENTRY SMILES": "O=[N+]([O-])c1ccc2c(c1)c(OCc1ccccc1)nn2Cc1ccccc1", "UNIT SYMBOL": "nM", "COMPARISON SIGN": "=", "Ki": 400}
{"ENTRY SMILES": "Brc1ccc2c(c1)c(OCc1ccc3ccccc3c1)nn2CCN1CCCCC1", "UNIT SYMBOL": "nM", "COMPARISON SIGN": "=", "Ki": 1800}
{"ENTRY SMILES": "O=[N+]([O-])c1ccc2c(c1)c(OCc1ccc3ccccc3c1)nn2Cc1ccc2ccccc2c1", "UNIT SYMBOL": "nM", "COMPARISON SIGN": ">", "Ki": 10000}
{"ENTRY SMILES": "O=[N+]([O-])c1ccc2c(c1)c(OCc1ccc3ccccc3c1)nn2CCN1CCOCC1", "UNIT SYMBOL": "nM", "COMPARISON SIGN": "=", "Ki": 500}
{"ENTRY SMILES": "COc1ccc(COc2nn(CCN(C(C)C)C(C)C)c3ccccc23)cc1", "UNIT SYMBOL": "nM", "COMPARISON SIGN": "=", "Ki": 7700}
{"ENTRY SMILES": "CCCCCn1nc(OCc2ccc(OC)cc2)c2cc([N+](=O)[O-])ccc21", "UNIT SYMBOL": "nM", "COMPARISON SIGN": "=", "Ki": 490}
{"ENTRY SMILES": "O=[N+]([O-])c1ccc2c(c1)c(OCc1cccc3ccccc13)nn2CCN1CCCC1", "UNIT SYMBOL": "nM", "COMPARISON SIGN": "=", "Ki": 130}
{"ENTRY SMILES": "c1ccc2c(COc3nn(Cc4cccc5ccccc45)c4ccccc34)cccc2c1", "UNIT SYMBOL": "nM", "COMPARISON SIGN": ">", "Ki": 10000}
{"ENTRY SMILES": "Nc1ccc2c(c1)c(OCc1ccc3ccccc3c1)nn2CCN1CCCCC1", "UNIT SYMBOL": "nM", "COMPARISON SIGN": "=", "Ki": 2000}
{"ENTRY SMILES": "CCCCCn1nc(OCc2ccc3ccccc3c2)c2cc([N+](=O)[O-])ccc21", "UNIT SYMBOL": "nM", "COMPARISON SIGN": "=", "Ki": 1370}
{"ENTRY SMILES": "O=[N+]([O-])c1ccc2c(c1)c(OCC1CCCCC1)nn2Cc1ccccc1", "UNIT SYMBOL": "nM", "COMPARISON SIGN": "=", "Ki": 90}
{"ENTRY SMILES": "c1ccc2c(COc3nn(CCN4CCCCC4)c4ccccc34)cccc2c1", "UNIT SYMBOL": "nM", "COMPARISON SIGN": "=", "Ki": 240}
{"ENTRY SMILES": "Nc1ccc2c(c1)c(OCc1ccccc1)nn2Cc1ccccc1", "UNIT SYMBOL": "nM", "COMPARISON SIGN": "=", "Ki": 1600}
{"ENTRY SMILES": "c1ccc2c(c1)c(OCC1CCCCC1)nn2CC1CCCCC1", "UNIT SYMBOL": "nM", "COMPARISON SIGN": "=", "Ki": 1300}
{"ENTRY SMILES": "O=[N+]([O-])c1ccc2c(c1)c(OCc1ccc3ccccc3c1)nn2Cc1ccccc1", "UNIT SYMBOL": "nM", "COMPARISON SIGN": "=", "Ki": 400}
{"ENTRY SMILES": "c1ccc2cc(COc3nn(CCN4CCCCC4)c4ccccc34)ccc2c1", "UNIT SYMBOL": "nM", "COMPARISON SIGN": "=", "Ki": 2000}
{"ENTRY SMILES": "O=[N+]([O-])c1ccc2c(c1)c(OCc1ccc3ccccc3c1)nn2CCN1CCCCC1", "UNIT SYMBOL": "nM", "COMPARISON SIGN": "=", "Ki": 500}
{"ENTRY SMILES": "CCCCCOc1nn(CCCCC)c2ccc([N+](=O)[O-])cc12", "UNIT SYMBOL": "nM", "COMPARISON SIGN": "=", "Ki": 680}
{"ENTRY SMILES": "CC(C)N(CCn1nc(OCc2cccc3ccccc23)c2ccccc21)C(C)C", "UNIT SYMBOL": "nM", "COMPARISON SIGN": "=", "Ki": 5400}
{"ENTRY SMILES": "c1ccc(COc2nn(Cc3ccccc3)c3ccccc23)cc1", "UNIT SYMBOL": "nM", "COMPARISON SIGN": "=", "Ki": 3510}
{"ENTRY SMILES": "COc1ccc(COc2nn(Cc3ccc(OC)cc3)c3ccccc23)cc1", "UNIT SYMBOL": "nM", "COMPARISON SIGN": "=", "Ki": 900}
{"ENTRY SMILES": "O=[N+]([O-])c1ccc2c(c1)c(OCc1cccc3ccccc13)nn2Cc1cccc2ccccc12", "UNIT SYMBOL": "nM", "COMPARISON SIGN": "=", "Ki": 240}
{"ENTRY SMILES": "Nc1ccc2c(c1)c(OCc1cccc3ccccc13)nn2CCN1CCCC1", "UNIT SYMBOL": "nM", "COMPARISON SIGN": "=", "Ki": 5000}
{"ENTRY SMILES": "COc1ccc(COc2nn(CCN(C(C)C)C(C)C)c3ccc([N+](=O)[O-])cc23)cc1", "UNIT SYMBOL": "nM", "COMPARISON SIGN": "=", "Ki": 9000}
